species: Rattus norvegicus; assay: DrugMatrix - Regimen: Daily Repeat; assay type: toxicity, organism-based, Sprague-Dawley; design: regimen Daily Repeat, gender Male, age 6-8 weeks; conditions: in vivo, po, 0 mg/kg, 72 h, tissue Plasma, route oral GAVAGE, dose level Control, time 3 day, vehicle .5 % CMC
CHOLESTEROL overview
observed.property: CHOLESTEROL (mg/dL)

[[record]]
compound = "C[C@]1(Cn2ccnn2)[C@H](C(=O)O)N2C(=O)C[C@H]2S1(=O)=O"
observed_property = "CHOLESTEROL"
val = 74

[[record]]
compound = "OC(CCN1CCCCC1)(c1ccccc1)C1CCCCC1 (stereo not given)"
observed_property = "CHOLESTEROL"
val = 77

[[record]]
compound = "Clc1ccc2c(c1)C(N1CCNCC1)=Nc1ccccc1O2"
observed_property = "CHOLESTEROL"
val = 71.67

[[record]]
compound = "N=C(N)NC(=O)c1nc(Cl)c(N)nc1N [AMILORIDE]"
observed_property = "CHOLESTEROL"
val = 78.17

[[record]]
compound = "CN1C(=O)COc2c(C(=O)NC3CN4CCC3CC4)cc(Cl)cc21 (stereo not given)"
observed_property = "CHOLESTEROL"
val = 68.83


---

LYMPHOCYTE for assorted compounds
species on record: Rattus norvegicus; test: DrugMatrix - Regimen: Daily Repeat; type: toxicity, organism-based, Sprague-Dawley; set-up: regimen Daily Repeat, gender Male, age 6-8 weeks; conditions: in vivo, po, 0 mg/kg, 120 h, tissue Blood, route oral GAVAGE, dose level Control, time 5 day, vehicle .5 % CMC
observed.property: LYMPHOCYTE (%)

[[record]]
compound = "N=C(N)NC(=O)c1nc(Cl)c(N)nc1N [AMILORIDE]"
measure_unit = "%"
val = 86.83

[[record]]
compound = "Clc1ccc2c(c1)C(N1CCNCC1)=Nc1ccccc1O2"
measure_unit = "%"
val = 91.33

[[record]]
compound = "O=[N+]([O-])c1ccccc1"
measure_unit = "%"
val = 85.9

[[record]]
compound = "C[C@]1(Cn2ccnn2)[C@H](C(=O)O)N2C(=O)C[C@H]2S1(=O)=O"
measure_unit = "%"
val = 90.5

[[record]]
compound = "CNC(=C[N+](=O)[O-])NCCSCc1ccc(CN(C)C)o1"
measure_unit = "%"
val = 93

[[record]]
compound = "CC(=O)CC(c1ccccc1)c1c(O)c2ccccc2oc1=O (stereo not drawn)"
measure_unit = "%"
val = 89

[[record]]
compound = "O=C1CCC(N2C(=O)c3ccccc3C2=O)C(=O)N1 (stereo not drawn) [THALIDOMIDE]"
measure_unit = "%"
val = 80.83

[[record]]
compound = "CO[C@H]1/C=C/O[C@@]2(C)Oc3c(C)c(O)c4c(c3C2=O)C2=NC3(CCN(CC(C)C)CC3)NC2=C(NC(=O)/C(C)=C\\C=C\\[C@H](C)[C@H](O)[C@@H](C)[C@@H](O)[C@@H](C)[C@H](OC(C)=O)[C@@H]1C)C4=O"
measure_unit = "%"
val = 93


---

species on record: Rattus norvegicus; test: DrugMatrix - Regimen: Daily Repeat; assay type: toxicity, organism-based, Sprague-Dawley; parameters: regimen Daily Repeat, gender Male, age 6-8 weeks; conditions: in vivo, iv, 0 mg/kg, 72 h, tissue Plasma, dose level Control, time 3 day, vehicle 100 % SALINE
observed.property: CREATININE (mg/dL)

[[record]]
molecule = "COc1cccc2c1C(=O)c1c(O)c3c(c(O)c1C2=O)C[C@@](O)(C(=O)CO)C[C@@H]3O[C@H]1C[C@H](N)[C@H](O)[C@H](C)O1 [DOXORUBICIN]"
measure_unit = "mg/dL"
val = 0.31

[[record]]
molecule = "CCc1c2c(nc3ccc(OC(=O)N4CCC(N5CCCCC5)CC4)cc13)-c1cc3c(c(=O)n1C2)COC(=O)[C@]3(O)CC [IRINOTECAN]"
measure_unit = "mg/dL"
val = 0.18

[[record]]
molecule = "COc1cccc2c1C(=O)c1c(O)c3c(c(O)c1C2=O)C[C@@](O)(C(=O)CO)C[C@@H]3O[C@H]1C[C@H](N)[C@@H](O)[C@H](C)O1 [EPIRUBICIN]"
measure_unit = "mg/dL"
val = 0.18

[[record]]
molecule = "CC[C@]1(O)C[C@@H]2CN(CCc3c([nH]c4ccccc34)[C@@](C(=O)OC)(c3cc4c(cc3OC)N(C)[C@H]3[C@@](O)(C(=O)OC)[C@H](OC(C)=O)[C@]5(CC)C=CCN6CC[C@]43[C@@H]65)C2)C1 [VINBLASTINE]"
measure_unit = "mg/dL"
val = 0.2

[[record]]
molecule = "CC(=O)N[C@@H]1[C@H](Oc2c3cc4cc2Oc2ccc(cc2Cl)[C@@H](O[C@@H]2O[C@@H](CO)[C@@H](O)[C@H](O)[C@@H]2NC(C)=O)[C@@H]2NC(=O)[C@H](NC(=O)[C@@H]4NC(=O)[C@H]4NC(=O)[C@@H](Cc5ccc(c(Cl)c5)O3)NC(=O)[C@H](N)c3ccc(O)c(c3)Oc3cc(O)cc4c3)c3ccc(O)c(c3)-c3c(O[C@H]4O[C@H](CO)[C@@H](O)[C@@H](O)[C@@H]4O)cc(O)cc3[C@@H](C(=O)O)NC2=O)O[C@@H](CO)[C@@H](O)[C@@H]1O"
measure_unit = "mg/dL"
val = 0.19

[[record]]
molecule = "CCC1=C[C@@H]2CN(C1)Cc1c([nH]c3ccccc13)[C@@](C(=O)OC)(c1cc3c(cc1OC)N(C)[C@H]1[C@@](O)(C(=O)OC)[C@H](OC(C)=O)[C@]4(CC)C=CCN5CC[C@]31[C@@H]54)C2 [VINORELBINE]"
measure_unit = "mg/dL"
val = 0.18

